Provide the recorded activation for the entries that follow.
System: Nuclear hormone receptor DAF-12 (Strongyloides stercoralis)
Assay: S. stercoralis DAF-12 nuclear receptor activators, primary screen, cell-based, luminescence, HEK293, GRIP1 co-expression, lit1-tk-luc (AID 652126);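 also: 0% = DMSO-only wells and 100% = 3 µM delta7-dafachronic acid wells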
Settings: HEK293 ssDAF-12/GRIP1 lit1-tk-luc reporter, at 6.8 µM, stronger effect = higher value, % of 3 µM dafachronic acid response
Screen size: about 370,000 compounds; about 3,700 (1%) were called active. The sample holds actives, similar compounds and a random draw of the others, so the mix is not that of the screen.
Answers are plain numbers, in %.

COc1ccc(CNC(=O)COc2ccccc2C(=O)c2cnn(-c3ccccc3)c2)cc1OC: -0.31

List reported activation for each of these compounds:
1. Nn1c(SCC(=O)Nc2nccs2)nnc1-c1ccco1
2. Cc1ccc(NC(=O)c2cc([N+](=O)[O-])ccc2Cl)c(O)c1
3. COC(=O)C1CN(Cc2cn(Cc3ccc(F)cc3)nn2)CCS(=O)(=O)N1Cc1ccc(Cl)cc1 (configuration not stated)
4. O=C(NC1CCCCN(Cc2ccc(Cl)cc2)C1=O)c1ccc(Br)cc1 (configuration not stated)
5. O=C(c1ccccc1)c1cc(-c2ccccn2)c(N2CCOCC2)s1
6. O=C(c1cnn(-c2ccc(Cl)cc2)c1)c1ccccc1O
7. NC(=O)c1c(NC(=O)c2ccccc2)sc2c1CCCC2
8. O=C(CSc1nnc(-c2ccccc2)n1Cc1ccco1)Nc1ccccc1-c1ccccc1

## Result
1. 0.9
2. 1.5
3. -2.03
4. -1.36
5. -1.53
6. 1.24
7. 2.15
8. -1.67

----------
Test system: Nuclear hormone receptor DAF-12 (Strongyloides stercoralis)
Assay: S. stercoralis DAF-12 nuclear receptor activators, primary screen, cell-based, luminescence, HEK293, GRIP1 co-expression, lit1-tk-luc (AID 652126);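 also: 0% = DMSO-only wells and 100% = 3 µM delta7-dafachronic acid wells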
Conditions: HEK293 ssDAF-12/GRIP1 lit1-tk-luc reporter, at 6.8 µM, stronger effect = higher value, % of 3 µM dafachronic acid response
In all, about 370,000 compounds went through this assay and about 3,700 (1%) were called active. This excerpt belongs to a sample that is enriched for actives.
recorded_endpoint: activation (%)
Numbers only, in %.

Consider the following illustrative entries.
COc1cccc(-c2nc3cc(C)ccc3o2)c1: 2.34
Cc1cc(NC(=O)c2ccco2)c(=O)n(Cc2c(F)cccc2Cl)c1: -1.23

Next item in the queue.
Form: molecule = COc1ccc(C(=O)c2c3ccc([N+](=O)[O-])cc3[n+]([O-])n2CCCN)cc1 ; activation = -1.18

----------
Provide the recorded activation for the entries that follow.
Test system: Nuclear hormone receptor DAF-12 (Strongyloides stercoralis)
Assay: S. stercoralis DAF-12 nuclear receptor activators, primary screen, cell-based, luminescence, HEK293, GRIP1 co-expression, lit1-tk-luc (AID 652126);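 also: 0% = DMSO-only wells and 100% = 3 µM delta7-dafachronic acid wells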
Conditions: HEK293 ssDAF-12/GRIP1 lit1-tk-luc reporter, at 6.8 µM, stronger effect = higher value, % of 3 µM dafachronic acid response
About 3,700 (1%) of roughly 370,000 compounds were called active. The sample holds actives, similar compounds and a random draw of the others, so the mix is not that of the screen.
Answers are plain numbers, in %.

Consider the following illustrative entries.
O=C(O)C1CCN(c2ccc([N+](=O)[O-])cc2[N+](=O)[O-])CC1: 1.84
CCC(C)(C)NC(=O)c1cc([N+](=O)[O-])ccc1N1CCCCC1: -1.32
CC1CCN(c2ccc(S(=O)(=O)Nc3cc(C(=O)O)cc(C(=O)O)c3)cc2[N+](=O)[O-])CC1: -1.44
O=C(CSc1nc2ccccc2n1Cc1ccccc1Cl)N/N=C\c1c[nH]c2ccccc12: -0.54
CC(C)(C)C1CCC(=NNC(=O)c2ccc(Br)o2)CC1 (stereo not given): -0.04

List reported activation for each of these compounds:
1. NS(=O)(=O)c1ccccc1NC(=O)c1c(O)c2ccccc2[nH]c1=O
2. CCCC(NC(=O)c1ccco1)c1nc2ccccc2[nH]1 (stereo not given)

## Result
1. 1.94
2. -0.66

List reported activation for each of these compounds:
1. O=C(c1cccc(C(F)(F)F)c1)N1CC[C@H]2[C@H](CCCN2Cc2cc(F)cc(F)c2)C1
2. CCc1ccc(-c2nnn(Cc3nc4ccccc4s3)n2)cc1
3. CC(C)N1CCCCC(NC(=O)C(C)(C)C)C1=O (stereo not given)

## Result
[-1.1, -0.71, -1.27]
